# Test system: NCI-H23 lung
# Measurement notes: NCI tumour cell line growth inhibition, 48 h
Decide by TGI: equal to or exceeding 40 µM means 1.0, less means 0.0.

Some solved cases for reference:
Compound | Answer label
Cc1ccc(C2=NN=C3C(c4ccccc4)=Nc4ccccc4N3C2)cc1 | 1.0
CCOC(=O)c1sc2c(c1OC(=O)c1ccc(Cl)cc1Cl)c(=O)n(-c1ccccc1)c(=S)n2-c1ccccc1 | 1.0
Clc1ccc(-c2cn3c(nc4ccccc43)c(/C=C/c3cccs3)n2)cc1 | 1.0
Cc1ccc(S(=O)(=O)NN=C2C(C)CC(C(C)(C)C)CC2C)cc1 (stereo not drawn) | 1.0
CC(=O)OCC(OC(C)=O)C(OC(C)=O)C(/C=N\Nc1nc2ccccc2c(=O)[nH]1)OC(C)=O (stereo not drawn) | 1.0

*Q* Hi team, for `C/C(=N/NC(=S)Nc1ccccc1C)c1ccccn1` , is the recorded TGI at or above 40 µM?
*A* 0.0

*Q* Also, CCOC(=O)C1C(c2ccccc2)C2(C#N)C(=N)OC1(C)C2(C#N)C#N (stereo not drawn) please.
*A* 0.0

*Q* Proceed to `COc1ccc(-c2nc(SCC(=O)N/N=C/c3ccc([N+](=O)[O-])cc3)[nH]c2-c2ccc(OC)cc2)cc1`
*A* 1.0

*Q* Now consider `Cc1ccc([N+](=O)[O-])cc1S(=O)(=O)Nc1ccc(C(=O)/C=C/c2ccccc2)cc1` and answer again.
*A* 0.0

*Q* Also CC(C)C1=CC23CCC4C(C)(C(=O)O)CCCC4(C)C2CC1C1C(=O)N(c2ccc(N4C(=O)C5C6CC7C8(C)CCCC(C)(C(=O)O)C8CCC7(C=C6C(C)C)C5C4=O)cc2)C(=O)C13 (stereo not drawn) , if possible.
*A* 0.0

*Q* Same for `Nc1nc(N)c2cc(Sc3ccc(Cl)cc3)ccc2n1`
*A* 0.0

*Q* Entry CC(=O)OC12c3ccccc3C(c3ccccc31)C1C(=O)N(c3ccccc3O)C(=O)C12 (stereo not drawn) please
*A* 1.0

*Q* Moving on to `CSc1nc(SC)c2c(C)cn(Cc3ccccc3)c2n1`
*A* 1.0

*Q* What about this compound? `CC[C@H]1[C@@H](C)C=C[C@@H](C)N1S(=O)(=O)c1ccc(C)cc1`
*A* 1.0

*Q* Let us now turn to `Cc1cn2c(/C=N/NC3=NCCN3)c(-c3ccc(Cl)c([N+](=O)[O-])c3)nc2s1`
*A* 0.0

*Q* Same thing, different compound: `C=CC(C)(C)c1c(OC)oc2ccc(OC)c(C)c2c1=O`
*A* 1.0

###

# System: SF-539 CNS
# Measurement notes: NCI tumour cell line growth inhibition, 48 h
This listing pairs compounds with measured TGI.

Compound | Property name | Result
CCCCN(CCCC)C1(c2cc3ccccc3s2)CCCCC1 | TGI | 34.9 µM
Nc1c2ccccc2nc2nccnc12 | TGI | > 100 µM
[N-]=[N+]=NCC(=O)c1c[nH]c(=O)[nH]c1=O | TGI | > 100 µM
CC12CCC3C(CCC4(O)C=CCCC34C=O)C1(O)CC(O)C2c1ccc(=O)oc1 (stereo unspecified) | TGI | 0.0735 µM
C#CCOCCCC(=O)O | TGI | > 100 µM

We now examine a further compound.
*Q* Any idea what TGI was measured for Cc1nn(C(=O)c2ccc(Cl)cc2)c2c1C(c1ccccc1)SC(N)=N2 (stereo unspecified) ?
*A* > 10 µM

###

Measured TGI accompanies every entry in the list below.
# Test system: 786-0 renal
# Measurement notes: NCI tumour cell line growth inhibition, 48 h
A number alone suffices; assume µM.

*Q* Identify the measured TGI of `COc1cc2cc(Oc3ccc(NC(=O)Nc4ccc(F)c(C(F)(F)F)c4)cc3)c(C)nc2cc1OCCN1CCOCC1` for 786-0 renal.
*A* 3.44

###

Measured TGI values are reported for all entries that follow.
# Tested on: SW-620 colon
# Measurement notes: NCI tumour cell line growth inhibition, 48 h

Answered cases to consult:
Compound | TGI
Cc1cc(C)c2c(=O)cc(-c3ccc(F)cc3)[nH]c2n1 | > 100 µM
Cc1cc2c(=O)cc(-c3ccc(O)cc3)oc2c(C(=O)O)c1C | > 100 µM
O=C(CSc1nc2ccc([N+](=O)[O-])cc2[nH]1)Nc1ccc([N+](=O)[O-])cc1 | 17.6 µM
C=C1CC2(C)CCC(OC(=O)C3(C)OC3C)C(C)(OC(C)=O)C2CC1=C(C)C (stereo not given) | > 100 µM
Cc1ccc(OC2CC(n3cnc4c(=O)[nH]c(Br)nc43)OC2Oc2ccc(C)cc2)cc1 (stereo not given) | > 100 µM

*Q* # query: TGI of entry O=C(OC1C#CCSCC#C/C=C\1)c1cnc2ccccc2n1 (stereo not given)
*A* > 100 µM

*Q* Then this compound: `CN1C(=O)CNS1(=O)=O`
*A* > 100 µM

*Q* Same question, `COC(=O)CC12CC(NC(=O)c3csc([C@@H](C[C@H](C(C)C)N(C)C(=O)[C@@H](NC(=O)[C@H]4CCCCN4C)C(C)C)OC(C)=O)n3)(C1)C2` this time
*A* > 33.3 µM

*Q* Do the same for `O=C(Nn1c(-c2ccccc2)nc2ccccc2c1=O)c1ccc([N+](=O)[O-])cc1` please
*A* > 100 µM

*Q* Okay, and `C/C(CC(O)(C(F)(F)Cl)C(F)(F)Cl)=N\Nc1ccccc1` ?
*A* > 100 µM

###

# Tested on: SNB-75 CNS
# Measurement notes: NCI tumour cell line growth inhibition, 48 h; in the data active means GI50 below about 0.43 µM; inactive means the rest
Please answer using one outcome listed in active, inactive

Worked examples, 3 molecules total:
Molecule | Answer label
CC12OC(C(=O)C13CC3)C1C(=O)c3cccc(O)c3C(=O)C12 (stereo not given) | inactive
N#C/C(=C\c1ccc([N+](=O)[O-])cc1)n1nnc2cc(F)c(F)cc21 | inactive
NS(=O)(=O)c1ccc(N=Nc2c(O)[nH]c3cccc(CCc4ccncc4)c23)cc1 | inactive

*Q* Hi, do you know how `CC(C)[C@]12O[C@H]1[C@@H]1O[C@]13[C@]1(O[C@H]1C[C@H]1C4=C(CC[C@@]13C)C(=O)OC4)[C@@H]2OC(=O)OC(C)(C)C` came out in this test?
*A* active

*Q* Lookup `Cc1cc(S(=O)(=O)Nc2n[nH]c(-c3ccc(Cl)cc3)c2C#N)c(S)cc1Cl`
*A* inactive

###

# System: NCI-H522 lung
# Measurement notes: NCI tumour cell line growth inhibition, 48 h
Property name: TGI (µM)
Report as a plain number; the unit µM is understood.

Use these answered entries as a reference point.
Molecule | Tested system | Uom | Numeric readout
CC[C@@]1(O)C(=O)OCc2c1cc1n(c2=O)Cc2cc3c(OC)cccc3nc2-1 | NCI-H522 lung | µM | 2.12
COc1ccc(/C=C/C(=O)c2ccc(B(O)O)cc2)cc1O | NCI-H522 lung | µM | 45.1
ClCc1nnc2n1-c1ccc(Cl)cc1SC2 | NCI-H522 lung | µM | 3.21
Cc1ccc(S(=O)(=O)NN=C2C(C)CC(C(C)(C)C)CC2C)cc1 (stereo unspecified) | NCI-H522 lung | µM | 50.2

Field: next molecule
*Q* Which TGI reading was recorded for the molecule COc1ccc2c(c1)OC(N)=C(C#N)C2c1ccc(F)c(F)c1 (stereo unspecified) ?
*A* 9.25

###

# System: PC-3 prostate
# Measurement notes: NCI tumour cell line growth inhibition, 48 h
Property name: TGI (µM)
Only the number, expressed in µM, is required.

These recorded examples may help you get a feel for the data.
Compound | TGI (µM)
Nc1n[nH]c2ccc([C@H]3[C@@H]4C5CCC(C5)[C@@H]4c4c(ccc5[nH]ncc45)N3S(=O)(=O)C3CC3)cc12 (stereo not given in full) | 9.85
Brc1ccc2[nH]cc([C@@H]3CN[C@@H](c4c[nH]c5ccc(Br)cc45)CN3)c2c1 | 14.7
O=C(/C=C/c1cccnc1)c1ccccc1 | 26.5

Field: next compound
*Q* Can you look up the measured TGI of `CN1CCN(Cn2nc(-c3ccccc3)n(/N=C/c3ccc(-c4ccc(Cl)cc4Cl)o3)c2=S)CC1` for me?
*A* 22

###

Listed molecules paired with reported TGI
# Test system: HOP-18 NSCLC
# Measurement notes: NCI tumour cell line growth inhibition, 48 h

Reference set, count: 5
Molecule | Result
CC(=O)Nc1ccc(S(=O)(=O)N/N=C/c2cc(I)cc([N+](=O)[O-])c2O)cc1 | 96.5 µM
O=C(Cc1c(C(=O)Nc2ccccc2)sc(C(=O)Nc2ccccc2)c1CC(=O)Nc1ccccc1)Nc1ccccc1 | > 100 µM
Cc1cc2c(=O)cc(-c3ccc(Cl)c(Cl)c3)oc2c(C(=O)O)c1C | > 100 µM
N#CCC(=O)N/N=C(/C(=O)Nc1ccccc1)C1C(=O)N(c2ccccc2)N=C1N (stereo unspecified) | > 100 µM
Cn1cnc([N+](=O)[O-])c1Sc1nccn1-c1ccccc1 | 54.3 µM

*Q* I have this molecule here, `Nc1c2ccccc2nc2nccnc12` , and I need its recorded TGI.
*A* > 100 µM
